- STUDY SYSTEM: MRGPRX2-MUT (MRGPRX2 N62S mutation) (Homo sapiens, UniProt Q96LB1, N62S)
- Construct: expressed in transfected cells
- ASSAY OVERVIEW: Primary HTS, Ca2+ mobilization (fluorescence ratio, B-score) in HEK293-Gα15 cells stably expressing the MRGPRX2 N62S mutation
- Format: cell-based
- REPORTED CONDITIONS: MRGPRX2-MUT in comparison to MRGPRX2-WT cells, 10 μM, Supplementary Table 1
Structures can show the parent of a compound that is named as a salt.
RESULT TYPE: Change of B-scores (%)
One number for each entry, in %.

Study these solved cases before continuing.
- COMPOUND: "CN1CCN(CC/C=C2/c3ccccc3Sc3ccc(S(=O)(=O)N(C)C)cc32)CC1"
  STUDY SYSTEM: "MRGPRX2-MUT (MRGPRX2 N62S mutation) (Homo sapiens, UniProt Q96LB1, N62S)"
  Change of B-scores (%): -74.90
- COMPOUND: "C=C[C@@]1(C)CC(=O)[C@]2(O)[C@@]3(C)[C@@H](O)CCC(C)(C)[C@@H]3[C@H](O)[C@H](OC(C)=O)[C@@]2(C)O1"
  STUDY SYSTEM: "MRGPRX2-MUT (MRGPRX2 N62S mutation) (Homo sapiens, UniProt Q96LB1, N62S)"
  Change of B-scores (%): -96.40
- COMPOUND: "COC(=O)C1=CCCN(C)C1 [Arecoline Hydrobromide]"
  STUDY SYSTEM: "MRGPRX2-MUT (MRGPRX2 N62S mutation) (Homo sapiens, UniProt Q96LB1, N62S)"
  Change of B-scores (%): 101.79
- COMPOUND: "CN(C)CCCN1c2ccccc2CCc2ccc(Cl)cc21 [Clomipramine Hydrochloride]"
  STUDY SYSTEM: "MRGPRX2-MUT (MRGPRX2 N62S mutation) (Homo sapiens, UniProt Q96LB1, N62S)"
  Change of B-scores (%): -92.83
- COMPOUND: "CCOC(=O)C1=C(COCCN)NC(C)=C(C(=O)OC)C1c1ccccc1Cl (centres unmarked) [Amlodipine Besylate]"
  STUDY SYSTEM: "MRGPRX2-MUT (MRGPRX2 N62S mutation) (Homo sapiens, UniProt Q96LB1, N62S)"
  Change of B-scores (%): -87.76
- COMPOUND: "COc1ccc2cc1Oc1ccc(cc1)C[C@H]1c3c(cc4c(c3Oc3cc5c(cc3OC)CCN(C)[C@@H]5C2)OCO4)CCN1C"
  STUDY SYSTEM: "MRGPRX2-MUT (MRGPRX2 N62S mutation) (Homo sapiens, UniProt Q96LB1, N62S)"
  Change of B-scores (%): -94.20
- COMPOUND: "Br.COc1ccc2c(c1)[C@]13CCCC[C@@H]1[C@H](C2)N(C)CC3.O"
  STUDY SYSTEM: "MRGPRX2-MUT (MRGPRX2 N62S mutation) (Homo sapiens, UniProt Q96LB1, N62S)"
  Change of B-scores (%): 138.39

// next item, Change of B-scores (%) requested
Q) Give Change of B-scores (%) for the following compound: CC(=O)Oc1cc(C(C)C)c(OCCN(C)C)cc1C [Moxisylyte Hydrochloride]
A) -94.42

###

- STUDY SYSTEM: MRGPRX2-MUT (MRGPRX2 N62S mutation) (Homo sapiens, UniProt Q96LB1, N62S)
- Construct: expressed in transfected cells
- Sequence (Q96LB1 1-330 N62S): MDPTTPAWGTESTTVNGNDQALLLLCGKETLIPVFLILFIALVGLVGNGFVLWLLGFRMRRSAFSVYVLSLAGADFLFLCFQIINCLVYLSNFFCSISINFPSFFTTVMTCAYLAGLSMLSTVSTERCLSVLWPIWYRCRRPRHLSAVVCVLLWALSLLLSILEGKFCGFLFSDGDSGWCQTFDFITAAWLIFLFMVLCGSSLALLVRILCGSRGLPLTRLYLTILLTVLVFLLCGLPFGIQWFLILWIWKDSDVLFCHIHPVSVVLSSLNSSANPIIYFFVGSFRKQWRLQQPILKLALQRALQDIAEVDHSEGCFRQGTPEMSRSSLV
- ASSAY OVERVIEW: Primary HTS, Ca2+ mobilization (fluorescence ratio, B-score) in HEK293-Gα15 cells stably expressing the MRGPRX2 N62S mutation
- Assay type: cell-based
- REPORTED CONDITIONS: MRGPRX2-MUT in comparison to MRGPRX2-WT cells, 10 μM, Table 1
Structures can show the parent of a compound that is named as a salt.
Provide the recorded Change of B-scores (%) for the entries that follow.
Give bare numbers, in %.

Study these solved cases before continuing.
- MOLECULE: "CCn1cc(C(=O)O)c(=O)c2cc(F)c(N3CCNCC3)cc21"
  RESULT TYPE: "Change of B-scores (%)"
  ENDPOINT VALUE: -99.81
- MOLECULE: "CN(C)CCCN1c2ccccc2Sc2ccccc21 [Promazine Hydrochloride]"
  RESULT TYPE: "Change of B-scores (%)"
  ENDPOINT VALUE: -65.37
- MOLECULE: "C[C@@H](Oc1cc(-c2cnn(C3CCNCC3)c2)cnc1N)c1c(Cl)ccc(F)c1Cl"
  RESULT TYPE: "Change of B-scores (%)"
  ENDPOINT VALUE: -101.99
- MOLECULE: "CN1CCC(=C2c3ccccc3CC(=O)c3sccc32)CC1 [Ketotifen Fumarate]"
  RESULT TYPE: "Change of B-scores (%)"
  ENDPOINT VALUE: -96.52

State the recorded Change of B-scores (%) for every item in the following list.
1. Cc1ccc(/C(=C\CN2CCCC2)c2ccccn2)cc1.Cl [Triprolidine Hydrochloride]
2. CCCCC(CC)CNC(=N)NC(=N)NCCCCCCNC(=N)NC(=N)NCC(CC)CCCC (centres unmarked) [Alexidine Hydrochloride]

A)
1. -96.71
2. -94.54

###

- STUDY SYSTEM: MRGPRX2-WT (wild-type MRGPRX2 receptor) (Homo sapiens, UniProt Q96LB1)
- Construct: expressed in transfected cells
- Sequence (Q96LB1 1-330): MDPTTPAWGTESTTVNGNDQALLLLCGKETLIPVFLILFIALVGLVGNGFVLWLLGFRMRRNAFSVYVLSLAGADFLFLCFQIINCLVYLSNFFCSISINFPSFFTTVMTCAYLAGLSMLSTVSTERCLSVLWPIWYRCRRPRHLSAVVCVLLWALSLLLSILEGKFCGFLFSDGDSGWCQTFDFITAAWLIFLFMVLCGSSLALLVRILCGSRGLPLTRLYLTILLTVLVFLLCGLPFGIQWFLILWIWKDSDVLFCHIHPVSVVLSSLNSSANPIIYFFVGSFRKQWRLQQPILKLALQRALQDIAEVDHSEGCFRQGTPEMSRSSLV
- ASSAY OVERVIEW: Primary HTS, Ca2+ mobilization (fluorescence ratio, B-score) in HEK293-Gα15 cells stably expressing wild-type MRGPRX2
- Assay type: cell-based
- REPORTED CONDITIONS: 10 μM compound, Supplementary Table 2
Where a name gives a salt, the structure may show the parent alone.
Provide the recorded B-scores (WT) for the entries that follow.
Numbers only.

Study these solved cases before continuing.
- COMPOUND: "CC(=O)[C@]1(O)Cc2c(O)c3c(c(O)c2[C@@H](O[C@H]2C[C@H](N)[C@H](O)[C@H](C)O2)C1)C(=O)c1ccccc1C3=O [Idarubicin hydrochloride]"
  STUDY SYSTEM: "MRGPRX2-WT (wild-type MRGPRX2 receptor) (Homo sapiens, UniProt Q96LB1)"
  ENDPOINT VALUE: 11.57
- COMPOUND: "CN(C)CCCN1c2ccccc2Sc2ccc(Cl)cc21 [Chlorpromazine]"
  STUDY SYSTEM: "MRGPRX2-WT (wild-type MRGPRX2 receptor) (Homo sapiens, UniProt Q96LB1)"
  ENDPOINT VALUE: 10.2
- COMPOUND: "CCn1cc(C(=O)O)c(=O)c2cc(F)c(N3CCN(C)CC3)cc21.CS(=O)(=O)O [Pefloxacine Mesylate]"
  STUDY SYSTEM: "MRGPRX2-WT (wild-type MRGPRX2 receptor) (Homo sapiens, UniProt Q96LB1)"
  ENDPOINT VALUE: 7.86
- COMPOUND: "CN1CC[C@@]23CCCC[C@@H]2[C@@H]1Cc1ccc(O)cc13 [Dextrorphan]"
  STUDY SYSTEM: "MRGPRX2-WT (wild-type MRGPRX2 receptor) (Homo sapiens, UniProt Q96LB1)"
  ENDPOINT VALUE: 31.94
- COMPOUND: "CC(Cc1ccc(O)cc1)NCC(O)c1cc(O)cc(O)c1 (stereo not shown) [Fenoterol]"
  STUDY SYSTEM: "MRGPRX2-WT (wild-type MRGPRX2 receptor) (Homo sapiens, UniProt Q96LB1)"
  ENDPOINT VALUE: 23.48

State the recorded B-scores (WT) for every item in the following list.
1. CN(C)CCOC(c1ccccc1)c1ccccc1 [Diphenhydramine Hydrochloride]
2. CN(C)CCN(Cc1ccc(Cl)cc1)c1ccccn1.Cl [Chloropyramine Hydrochloride]
3. CN(C)CCCN1c2ccccc2Sc2ccccc21 [Promazine Hydrochloride]
4. CN1[C@@H]2CC[C@H]1C[C@@H](OC(=O)C(CO)c1ccccc1)C2 (stereo partly shown) [Atropine]
5. CC(=O)OCC[N+](C)(C)C [Acetylcholine Chloride]

A)
1: 10.26; 2: 14.6; 3: 23.47; 4: 18.59; 5: 47.11

State the recorded B-scores (WT) for every item in the following list.
1. CN(C)CCCN1c2ccccc2CCc2ccc(Cl)cc21 [Clomipramine Hydrochloride]
2. COc1ccc(CN(CCN(C)C)c2ccccn2)cc1 [Pyrilamine]
3. COc1cccc2c1C(=O)c1c(O)c3c(c(O)c1C2=O)C[C@@](O)(C(C)=O)C[C@@H]3O[C@H]1C[C@H](N)[C@H](O)[C@H](C)O1 [Daunorubicin Hydrochloride]

A)
1. 30.29
2. 13.36
3. 2.95

State the recorded B-scores (WT) for every item in the following list.
1. CN1CCN(c2cc3c(cc2F)c(=O)c(C(=O)O)cn3-c2ccc(F)cc2)CC1 [Difloxacin Hydrochloride]
2. O=C(O)c1cn(C2CC2)c2cc(N3CCNCC3)c(F)cc2c1=O [Ciprofloxacin]
3. CN(C)CCCN1c2ccccc2Sc2ccc(Cl)cc21 [Chlorpromazine Hydrochloride]
4. COc1ccc(CCN(C)CCCC(C#N)(c2cc(OC)c(OC)c(OC)c2)C(C)C)cc1OC (stereo not shown) [Gallopamil]
5. CC(Cc1ccc(O)cc1)NCC(O)c1cc(O)cc(O)c1 (stereo not shown) [Fenoterol Hydrobromide]

A)
[44.81, 7.33, 7.97, 7.16, 20.31]
